experiment: Oral bioavailability in CD-1 mouse at 10 mg/kg measured at 0.083 to 24 hrs by LC-MS/MS analysis; assay type: ADME, organism-based; settings: in vivo, time 0.083-24 hrs
assay-readout: bioavailability (%)

These recorded examples may help you get a feel for the data.
COCCCOc1cc2c(cc1Cl)-c1cc(=O)c(C(=O)O)cn1[C@H](C(C)C)CO2 : 63
CCc1cc2c(cc1OCCCOC)OC[C@@H](C(C)C)n1cc(C(=O)O)c(=O)cc1-2 : 91
COCCCOc1cc2c(nc1OC)-c1cc(=O)c(C(=O)O)cn1[C@H](C(C)C)C2 : 99

P. COCCCOc1cc2c(nc1OC)-c1cc(=O)c(C(=O)O)cn1[C@](C)(C(C)(C)C)C2
Q. COCCCOc1cc2c(nc1OC)-c1cc(=O)c(C(=O)O)cn1[C@](C)(C(C)C)C2
Data request: I'm curious whether P or Q has the smaller bioavailability number. Which is it? Reply briefly: the label of your chosen item.
Data returned: P

---

system: HepG2 2.2.15; test: Cytotoxicity against human HepG2.2.15 cells by Cell-titer Glo luminescent assay; type: functional
We begin with a simple list: items and their reported CC50.
// note: answer is a bare numeric in µM

# count of solved cases: 2
COCCCOc1cc2c(cc1C)-c1cc(=O)c(C(=O)O)cn1[C@H](C(C)C)CO2 : 39
CCc1cc2c(cc1OCCCOC)OC[C@@H](C(C)C)n1cc(C(=O)O)c(=O)cc1-2 : 33

CC50 recorded for this molecule, `COCCCOc1cc2c(cc1Cl)-c1cc(=O)c(C(=O)O)cn1[C@H](C(C)C)CO2` , is 39

---

pIC50: −log10 of the molar value.
Below are pIC50 values measured for Cytochrome P450 2C9 (Homo sapiens, UniProt P11712).

COCCCOc1cc2c(nc1OC)-c1cc(=O)c(C(=O)O)cn1[C@H](C(C)C)C2 : < 4.60

Proceed to the following item.
In plain terms, `COCCCOc1cc2c(cc1Cl)-c1cc(=O)c(C(=O)O)cn1[C@H](C(C)C)CO2` has a documented pIC50 of < 4.60

---

experiment: AUCinfinity in Beagle dog at 2 mg/kg,iv measured at 0.083 to 24 hrs post administration by LC-MS/MS analysis; format: ADME, organism-based, Canis lupus familiaris; conditions: Beagle, in vivo, time 0.083-24 hrs
Measured AUC(0-inf) values are reported for all entries that follow.
Please reply with the bare figure in ng·h/mL and do not write the unit itself.

COCCCOc1cc2c(cc1Cl)-c1cc(=O)c(C(=O)O)cn1[C@H](C(C)C)CO2 : 3370

Now consider the entry below.
Data point: `COCCCOc1cc2c(nc1OC)-c1cc(=O)c(C(=O)O)cn1[C@H](C(C)C)C2` ; AUC(0-inf) = 6410

---

system: Hepatitis B virus; assay: Antiviral activity against HBV infected in human HepG2.2.15 cells assessed as inhibition of HBsAg level incubated for 6 days by microplate-based chemiluminescence immunoassay; format: functional, organism-based; details: HepG2 2.2.15, 144 h
assay-readout: EC50 (nM)

COCCOc1cc2c(cc1Cl)-c1cc(=O)c(C(=O)O)cn1[C@H](C(C)C)CO2 : 53

A. COCCCOc1cc2c(cc1Cl)-c1cc(=O)c(C(=O)O)cn1[C@H](C(C)C)CO2
B. COc1cc2c(cc1OC)-c1cc(=O)c(C(=O)O)cn1[C@H](C(C)C)C2
Data request: Sorting by EC50 in descending order, would A or B appear first? State the label of the item chosen.
Data returned: A
